assay: Half life in C57BL/6J mouse at 3 mg/kg,iv and measured after 2 hrs by LC-MS/MS analysis; assay type: ADME, organism-based; settings: in vivo

{"Smiles Record": "O=C(O)c1ccc(Oc2cnc(NC(=O)[C@H](Oc3ccc(F)cc3F)c3ccc(S(=O)(=O)C4CC4)cc3)s2)cc1", "half-life / h": 2.16}

====

experiment: Drug distribution in C57BL/6J mouse liver at 30 mg/kg,po and measured after 3 hrs by LC-MS/MS analysis; format: ADME, organism-based; settings: read-out: Drug uptake
Recorded concentration at 3 h by entry
Readout Name: concentration at 3 h (µM)

{"Smiles Record": "CC(C)(Oc1ccc(F)cc1F)C(=O)Nc1ncc(Oc2ccc(C(=O)O)cc2)s1", "Readout Name": "concentration at 3 h", "Result": 11.1}
{"Smiles Record": "O=C(O)c1ccc(Oc2cnc(NC(=O)[C@H](Oc3ccc(F)cc3F)c3ccc(S(=O)(=O)C4CC4)cc3)s2)cc1", "Readout Name": "concentration at 3 h", "Result": 184}
{"Smiles Record": "CC(C)(Oc1ccc(F)cc1F)C(=O)Nc1nc(CC(=O)O)c(Cl)s1", "Readout Name": "concentration at 3 h", "Result": 104}

====

assay: Clearance in C57BL/6J mouse at 1 mg/kg,iv and measured after 2 hrs by LC-MS/MS analysis; type: ADME, organism-based; settings: in vivo

{"Smiles Record": "CC(C)(Oc1ccc(F)cc1F)C(=O)Nc1nc(CC(=O)O)c(Cl)s1", "Readout Unit": "mL/min/kg", "clearance": 3.5}

====

target: Hexokinase-4 (Rattus norvegicus) (UniProt P17712); assay: Activation of glucokinase in rat Primary hepatocytes assessed as fold increase in glycogen synthesis at 10 uM incubated for 30 mins using [U14C]-D-glucose as substrate by Microbeta TriLux luminescence counter analysis; type: cell-based; settings: Primary hepatocyte, filed as activator
Sequence (P17712 whole entry): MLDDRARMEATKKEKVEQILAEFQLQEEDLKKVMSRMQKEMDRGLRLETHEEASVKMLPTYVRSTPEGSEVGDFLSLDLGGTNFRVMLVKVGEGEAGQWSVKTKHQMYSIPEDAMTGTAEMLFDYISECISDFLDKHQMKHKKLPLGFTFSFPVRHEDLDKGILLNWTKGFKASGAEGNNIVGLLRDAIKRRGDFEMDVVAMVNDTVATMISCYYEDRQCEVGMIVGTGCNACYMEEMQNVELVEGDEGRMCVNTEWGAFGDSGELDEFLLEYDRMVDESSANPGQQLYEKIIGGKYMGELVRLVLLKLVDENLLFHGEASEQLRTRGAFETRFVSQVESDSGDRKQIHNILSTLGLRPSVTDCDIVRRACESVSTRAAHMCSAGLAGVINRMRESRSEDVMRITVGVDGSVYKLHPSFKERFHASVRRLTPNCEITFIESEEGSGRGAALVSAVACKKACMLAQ
Recorded fold change (FC) by entry

{"Compound": "O=C(O)c1ccc(Oc2cnc(NC(=O)C(Oc3ccc(F)cc3F)c3ccc(S(=O)(=O)N4CCCC4)cc3)s2)cc1 (stereo unspecified)", "Study Target": "Hexokinase-4 (Rattus norvegicus) (UniProt P17712)", "fold change (FC)": 3.76}
{"Compound": "O=C(O)c1ccc(Oc2cnc(NC(=O)[C@H](Oc3ccc(F)cc3F)c3ccc(S(=O)(=O)C4CC4)cc3)s2)cc1", "Study Target": "Hexokinase-4 (Rattus norvegicus) (UniProt P17712)", "fold change (FC)": 12.2}
{"Compound": "O=C(O)c1ccc(Oc2cnc(NC(=O)C(Oc3ccc(F)cc3F)c3ccc(S(=O)(=O)C4CC4)cc3)s2)cc1 (stereo unspecified)", "Study Target": "Hexokinase-4 (Rattus norvegicus) (UniProt P17712)", "fold change (FC)": 11.4}
{"Compound": "O=C(O)c1ccc(Oc2cnc(NC(=O)C(Oc3ccc(F)cc3F)c3ccc(S(=O)(=O)C4CCOCC4)cc3)s2)cc1 (stereo unspecified)", "Study Target": "Hexokinase-4 (Rattus norvegicus) (UniProt P17712)", "fold change (FC)": 3.04}
{"Compound": "O=C(O)c1ccc(Oc2cnc(NC(=O)C(Oc3ccc(F)cc3F)c3ccc(S(=O)(=O)N4CCOCC4)cc3)s2)cc1 (stereo unspecified)", "Study Target": "Hexokinase-4 (Rattus norvegicus) (UniProt P17712)", "fold change (FC)": 3}
{"Compound": "O=C(O)c1ccc(Oc2cnc(NC(=O)C(Oc3ccc(F)cc3F)c3ccc(S(=O)(=O)N4CCCCC4)cc3)s2)cc1 (stereo unspecified)", "Study Target": "Hexokinase-4 (Rattus norvegicus) (UniProt P17712)", "fold change (FC)": 3.4}

====

Recorded pEC50 by entry
target: Hexokinase-4 (Homo sapiens); test: Activation of recombinant human glucokinase assessed as increase in maximal activation by measuring accumulation of NADH in presence of S0.5 of glucose and NAD by plate reader analysis
Sequence (P35557 whole entry): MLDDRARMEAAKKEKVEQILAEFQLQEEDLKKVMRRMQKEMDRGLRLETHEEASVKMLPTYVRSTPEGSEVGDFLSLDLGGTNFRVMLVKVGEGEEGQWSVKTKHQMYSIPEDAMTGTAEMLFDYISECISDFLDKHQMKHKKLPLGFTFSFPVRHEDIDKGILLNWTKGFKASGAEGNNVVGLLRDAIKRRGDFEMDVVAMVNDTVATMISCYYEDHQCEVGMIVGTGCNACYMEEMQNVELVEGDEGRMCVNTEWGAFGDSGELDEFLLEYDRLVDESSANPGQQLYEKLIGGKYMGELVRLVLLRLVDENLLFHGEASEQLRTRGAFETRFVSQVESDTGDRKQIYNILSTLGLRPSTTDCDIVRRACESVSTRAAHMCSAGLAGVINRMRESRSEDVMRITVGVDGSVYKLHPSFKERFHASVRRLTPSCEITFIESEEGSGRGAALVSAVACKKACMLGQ
pEC50: −log10 of the molar value.
Readout Name: pEC50

{"Molecule": "O=C(O)Cc1ccc(Oc2cnc(NC(=O)C(Oc3ccc(F)cc3F)c3ccc(S(=O)(=O)C4CC4)cc3)s2)cc1 (stereo unspecified)", "Qual": "=", "Result": 6.40}
{"Molecule": "O=C(O)C#Cc1cnc(NC(=O)C(Oc2ccc(F)cc2F)c2ccc(S(=O)(=O)C3CC3)cc2)s1 (stereo unspecified)", "Qual": "=", "Result": 5.64}
{"Molecule": "O=C(O)c1ccc(Oc2cnc(NC(=O)C(Oc3ccc(F)cc3F)c3ccc(S(=O)(=O)N4CCOCC4)cc3)s2)cc1 (stereo unspecified)", "Qual": "=", "Result": 6.48}
{"Molecule": "O=C(O)c1ccc(Oc2cnc(NC(=O)[C@H](Oc3ccc(F)cc3F)c3ccc(S(=O)(=O)C4CC4)cc3)s2)cc1", "Qual": "=", "Result": 7.47}
{"Molecule": "O=C(O)C1CCN(Cc2cnc(NC(=O)C(Oc3ccc(F)cc3F)c3ccc(S(=O)(=O)C4CC4)cc3)s2)CC1 (stereo unspecified)", "Qual": "<", "Result": 5.00}
{"Molecule": "CC(C)(Oc1ccc(F)cc1F)C(=O)Nc1ncc(Oc2ccc(C(=O)O)cc2)s1", "Qual": "=", "Result": 5.21}
{"Molecule": "CC(Oc1ccc(F)cc1F)(C(=O)Nc1nc(CC(=O)O)c(Cl)s1)c1ccc(S(=O)(=O)N2CCCCC2)cc1 (stereo unspecified)", "Qual": "<", "Result": 4.70}
{"Molecule": "O=C(O)c1cccc(Oc2cnc(NC(=O)C(Oc3ccc(F)cc3F)c3ccc(S(=O)(=O)C4CC4)cc3)s2)c1 (stereo unspecified)", "Qual": "=", "Result": 5.56}
{"Molecule": "O=C(O)Cc1nc(NC(=O)C(Oc2ccc(F)cc2F)c2ccc(S(=O)(=O)N3CCCCC3)cc2)sc1Cl (stereo unspecified)", "Qual": "=", "Result": 6.30}
{"Molecule": "O=C(O)c1ccc(Oc2cnc(NC(=O)C(Oc3ccc(F)cc3F)c3ccc(S(=O)(=O)C4CC4)cc3)s2)cc1 (stereo unspecified)", "Qual": "=", "Result": 6.72}
{"Molecule": "O=C(O)c1ccc(Oc2cnc(NC(=O)[C@@H](Oc3ccc(F)cc3F)c3ccc(S(=O)(=O)C4CC4)cc3)s2)cc1", "Qual": "=", "Result": 6.16}
{"Molecule": "O=C(O)c1ccc(Cc2cnc(NC(=O)C(Oc3ccc(F)cc3F)c3ccc(S(=O)(=O)C4CC4)cc3)s2)cc1 (stereo unspecified)", "Qual": "=", "Result": 6.35}
{"Molecule": "O=C(O)c1ccc(Oc2cnc(NC(=O)C(Oc3ccc(F)cc3F)c3ccc(S(=O)(=O)N4CCCC4)cc3)s2)cc1 (stereo unspecified)", "Qual": "=", "Result": 6.62}
{"Molecule": "O=C(O)c1ccc(Oc2cnc(NC(=O)C(Oc3ccc(F)cc3F)c3ccc(S(=O)(=O)C4CCOCC4)cc3)s2)cc1 (stereo unspecified)", "Qual": "=", "Result": 6.51}
{"Molecule": "O=C(Nc1ncc(CN2CCCC2C(=O)O)s1)C(Oc1ccc(F)cc1F)c1ccc(S(=O)(=O)C2CC2)cc1 (stereo unspecified)", "Qual": "<", "Result": 5.00}
{"Molecule": "CC(C)(Oc1ccc(F)cc1F)C(=O)Nc1nc(CC(=O)O)c(Cl)s1", "Qual": "=", "Result": 5.15}

====

test: Inhibition of drug uptake in mouse hepatocytes at 1 to 100 uM incubated for 5 mins in presence of rifamycin SV by LC-MS/MS analysis; format: cell-based, Hepatocyte; conditions: mouse hepatocytes, with rifamycin SV, dose 1-100 µM

{"Smiles Record": "O=C(O)c1ccc(Oc2cnc(NC(=O)[C@H](Oc3ccc(F)cc3F)c3ccc(S(=O)(=O)C4CC4)cc3)s2)cc1", "Readout Unit": "%", "inhibition at 5 min, up to 100 µM": 90}

====

assay: Drug uptake in C57BL/6J mouse plasma at 30 mg/kg,po and measured after 1 hrs; type: ADME, organism-based
Readout Name: concentration at 1 h (µM)

{"Smiles Record": "CC(C)(Oc1ccc(F)cc1F)C(=O)Nc1ncc(Oc2ccc(C(=O)O)cc2)s1", "Result": 8.8}

====

test: Half life in C57BL/6J mouse at 1 mg/kg,iv and measured after 2 hrs by LC-MS/MS analysis; type: ADME, organism-based; settings: in vivo

{"Smiles Record": "CC(C)(Oc1ccc(F)cc1F)C(=O)Nc1nc(CC(=O)O)c(Cl)s1", "half-life, h": 1}

====

assay: Volume of distribution at steady state in C57BL/6J mouse at 3 mg/kg,iv and measured after 2 hrs by LC-MS/MS analysis; format: ADME, organism-based; details: in vivo, read-out: Vdss
Readout Name: Vd (L/kg)

{"Smiles Record": "O=C(O)c1ccc(Oc2cnc(NC(=O)[C@H](Oc3ccc(F)cc3F)c3ccc(S(=O)(=O)C4CC4)cc3)s2)cc1", "Readout Name": "Vd", "Readout Unit": "L/kg", "Result": 1.67}
